target_or_test_system: CCK-B receptors (Cavia porcellus, UniProt H0VZC5)
Construct: Cerebral cortices were removed from Hartley-strain guinea pigs, the cerebral cortices were homogenized; from tissue; host or cells: cerebral cortex of Hartley-strain guinea pigs, crude membrane pellet
measurement_protocol: Measurement of Binding Affinity for CCK-B Receptors
Set-up: species or system Hartley-strain guinea pig
stated_conditions: inhibition of specific [3H]CCK-8 (1.0 nM) binding; guinea pig cerebral cortex; 25° C., 2 hours; pH 6.5; read-out: Ki (CCK-B receptors)
pKi: −log10 of the molar value.
measured_metric: pKi

Answered cases to consult:
{"molecule": "Cc1ccc2c(c1)N(CC(=O)c1ccccc1C)C(=O)C(NC(=O)Nc1cccc(C(=O)O)c1)CN2C(=O)C(C)(C)C (racemic) [Example 13 (racemate)]", "pKi": 8.50}
{"molecule": "CC(C)(C)C(=O)CN1C(=O)[C@H](NC(=O)Nc2cccc(C(=O)NS(C)(=O)=O)c2)CN(C2CCCCC2)c2ccccc21", "pKi": 9.68}
{"molecule": "Cc1ccccc1C(=O)CN1C(=O)C(NC(=O)Nc2cccc(SCC(=O)O)c2)CN(C(=O)C(C)(C)C)c2ccccc21 (stereo not shown)", "pKi": 9.74}
{"molecule": "CC(C)(C)C(=O)CN1C(=O)C(NC(=O)Nc2cccc(C(=O)O)c2)CN(c2ccccc2)c2ccccc21 (single isomer, unassigned; (-)) [Example 70 (-form)]", "pKi": 9.44}
{"molecule": "CC(C)(C)C(=O)CN1C(=O)[C@H](NC(=O)Nc2cccc(C(=O)O)c2)CN(C2CCCCC2)c2ccccc21", "pKi": 9.20}

[P] CC(C)(C)C(=O)CN1C(=O)C(NC(=O)Nc2cccc(C(=O)NS(C)(=O)=O)c2)CN(c2ccccc2)c2ccccc21 (stereo not shown)
[Q] Cc1ccc2c(c1)N(CC(=O)c1ccccc1C)C(=O)C(NC(=O)Nc1cccc(C(=O)O)c1)CN2C(=O)c1ccccn1 (stereo not shown)
Pick one: P or Q . Which has the bigger pKi number? Please identify the chosen entry by its label. P

----------
target_or_test_system: CCK-B receptors (Cavia porcellus)
Construct: Cerebral cortices were removed from Hartley-strain guinea pigs, the cerebral cortices were homogenized; from tissue; host or cells: cerebral cortex of Hartley-strain guinea pigs, crude membrane pellet
Sequence (H0VZC5 1-426): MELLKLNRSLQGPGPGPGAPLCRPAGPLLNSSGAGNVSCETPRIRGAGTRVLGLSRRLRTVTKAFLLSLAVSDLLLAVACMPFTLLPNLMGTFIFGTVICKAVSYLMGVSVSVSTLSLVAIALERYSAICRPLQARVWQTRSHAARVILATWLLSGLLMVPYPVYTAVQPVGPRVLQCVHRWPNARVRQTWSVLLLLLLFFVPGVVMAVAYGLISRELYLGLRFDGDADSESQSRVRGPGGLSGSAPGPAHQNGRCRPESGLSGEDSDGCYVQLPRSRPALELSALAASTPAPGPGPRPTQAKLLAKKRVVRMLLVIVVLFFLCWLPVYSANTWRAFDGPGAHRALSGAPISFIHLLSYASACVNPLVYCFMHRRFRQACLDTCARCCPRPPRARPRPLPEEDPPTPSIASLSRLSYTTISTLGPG
measurement_protocol: Measurement of Binding Affinity for CCK-B Receptors
Parameters: species or system Hartley-strain guinea pig
stated_conditions: inhibition of specific [3H]CCK-8 (1.0 nM) binding; guinea pig cerebral cortex; 25° C., 2 hours; pH 6.5; read-out: Ki (CCK-B receptors)
measured_metric: Ki (nM)

Answered cases to consult:
{"molecule": "CC(C)(C)C(=O)CN1C(=O)[C@H](NC(=O)Nc2cccc(SCC(=O)O)c2)CN(C2CCCCC2)c2ccccc21 [Example 169]", "endpoint_unit": "nM", "Ki": 0.1}
{"molecule": "CC(C)(C)OC(=O)CN1C(=O)C(NC(=O)Nc2cccc(C(=O)O)c2)CN(c2ccccc2)c2ccccc21 (stereo not drawn) [Example 80]", "endpoint_unit": "nM", "Ki": 2.62}
{"molecule": "Cc1ccc2c(c1)N(CC(=O)c1ccccc1C)C(=O)C(NC(=O)Nc1cccc(C(=O)O)c1)CN2C(=O)C(C)(C)CCl (stereo not drawn) [Example 94]", "endpoint_unit": "nM", "Ki": 1.62}

[P] Cc1ccc2c(c1)N(CC(=O)c1ccccc1C)C(=O)C(NC(=O)Nc1ccc(C)c(C(=O)O)c1)CN2C(=O)CC(C)(C)C (stereo not drawn) [Example 120]
[Q] CC(C)(C)C(=O)CN1C(=O)C(NC(=O)Nc2cccc(C(=O)O)c2)CN(C2CCCCC2)c2ccccc21 (stereo not drawn) [Example 121]
Given the listed items, does P or Q have the lesser reported Ki? Please identify the chosen entry by its label. P
(P: 0.75 nM, Q: 1.2 nM)

[a] Cc1ccc2c(c1)N(CC(=O)C(C)(C)C)C(=O)C(NC(=O)Nc1cccc(C(=O)O)c1)CN2c1ccccc1 (stereo not drawn) [Example 95]
[b] Cc1ccccc1C(=O)CN1C(=O)C(NC(=O)Nc2cccc(CC(=O)O)c2)CN(C(=O)C(C)(C)C)c2ccccc21 (stereo not drawn) [Example 72]
[c] CN(C(=O)CN1C(=O)C(NC(=O)Nc2cccc(C(=O)NS(C)(=O)=O)c2)CN(c2ccccc2)c2ccccc21)c1ccccc1 (stereo not drawn) [Example 15]
[d] CC(C)(C)C(=O)CN1C(=O)[C@H](NC(=O)Nc2cccc(OC(C)(C)C(=O)O)c2)CN(C2CCCCC2)c2ccccc21 [Example 125]
[e] Cc1cccc(NC(=O)NC2CN(C(=O)C(C)(C)C)c3ccccc3N(CC(=O)c3ccccc3C)C2=O)c1 (stereo not drawn) [Example 1]
# desc sort on Ki across 5 molecules Please respond with the labels ordered as the question requires. e, a, b, c, d

[1] Cc1ccc2c(c1)N(CC(=O)c1ccccc1C)C(=O)C(NC(=O)Nc1cccc(C(=O)O)c1)CN2C(=O)C(C)(C)C (single isomer, unassigned; (+)) [Example 13 (+form)]
[2] COc1cccc(NC(=O)NC2CN(C3CCCCC3)c3ccccc3N(CC(=O)C(C)(C)C)C2=O)c1 (stereo not drawn) [Example 151]
[3] CC(C)(C)C(=O)CN1C(=O)C(NC(=O)Nc2cccc(OCC(=O)O)c2)CN(c2ccccc2)c2ccccc21 (stereo not drawn) [Example 35]
# desc sort on Ki across 3 molecules Please respond with the labels ordered as the question requires. 2, 1, 3
(2: 2.86 nM, 1: 1.16 nM, 3: 0.61 nM)

[1] Cc1cccc(NC(=O)NC2CN(C(=O)C(C)(C)C)c3ccc(C)cc3N(CC(=O)c3ccccc3C)C2=O)c1 (stereo not drawn) [Example 4]
[2] CC(C)(C)C(=O)CN1C(=O)C(NC(=O)Nc2cccc(C(=O)O)c2)CN(c2ccccc2)c2ccccc21 (racemic) [Example 70 (racemate)]
[3] CC(C)(C)OC(=O)CN1C(=O)C(NC(=O)Nc2cccc(C(=O)NS(C)(=O)=O)c2)CN(c2ccccc2)c2ccccc21 (stereo not drawn) [Example 16]
[4] CC(C)(C)C(=O)CN1C(=O)C(NC(=O)Nc2cccc(SCC(=O)O)c2)CN(c2ccccc2)c2ccccc21 (single isomer, unassigned; (-)) [Example 88 (-form)]
# desc sort on Ki across 4 molecules Please respond with the labels ordered as the question requires. 3, 1, 2, 4

[1] CC(C)(C)C(=O)CN1C(=O)C(NC(=O)Nc2cccc(C(=O)O)c2)CN(c2ccccc2F)c2ccccc21 (stereo not drawn) [Example 101]
[2] Cc1cccc(NC(=O)NC2CN(c3ccccc3)c3ccccc3N(CC(=O)C(C)(C)C)C2=O)c1 (stereo not drawn) [Example 71]
[3] Cc1ccc2c(c1)N(CC(=O)c1ccco1)C(=O)C(NC(=O)Nc1cccc(C(=O)O)c1)CN2C(=O)C(C)(C)C (stereo not drawn) [Example 114]
Please put the entries in order of rising Ki. Please respond with the labels ordered as the question requires. 1, 2, 3
(1: 1.13 nM, 2: 2.88 nM, 3: 9.43 nM)

[A] Cc1ccc2c(c1)N(CC(=O)c1ccccc1C)C(=O)C(NC(=O)Nc1cccc(C(=O)O)c1)CN2C(=O)CC(C)(C)C (stereo not drawn) [Example 109]
[B] CC(C)(C)C(=O)CN1C(=O)C(NC(=O)Nc2cccc(C(=O)O)c2)CN(C(=O)C(C)(C)C)c2ccccc21 (stereo not drawn) [Example 10]
Given the listed items, does A or B have the lesser reported Ki? Please identify the chosen entry by its label. A
